- EXPERIMENTAL SYSTEM: PTGER2 (EP2) (Homo sapiens (Human))
- TEST METHOD NOTES: hEP2 b-arrestin assay (PathHunter HEK 293 PTGER2 b-arrestin cells)
- EXPERIMENTAL CONDITIONS: antagonistic activity, beta-arrestin assay; read-out: hEP2 b-arr IC50
pIC50: −log10 of the molar value.

{"MOLECULAR STRING": "CCOc1cc(-c2cc(NCCc3c(OC)cc4ccccc4c3C)ncn2)cc(F)c1CC(=O)O", "pIC50": 6.48}
{"MOLECULAR STRING": "COc1cc2c(c(C)c1CCNc1cc(-c3ccc(CC(=O)O)c(OC(F)F)c3)ncn1)OCCO2", "pIC50": 8.00}
{"MOLECULAR STRING": "CCOc1cc(-c2cc(NCCc3c(OC)cc4ccccc4c3C)ncn2)sc1C(=O)O", "pIC50": 8.22}
{"MOLECULAR STRING": "CCOc1cc(-c2cc(NCCc3cc4sccc4cc3OC)ncn2)ccc1C(=O)O", "pIC50": 6.80}
{"MOLECULAR STRING": "Cc1cc2c(cc1CCNc1cc(-c3ccc(C(=O)O)c(OC4CCC4)c3)ncn1)OC=CO2", "pIC50": 6.81}

====

- EXPERIMENTAL SYSTEM: EP4 (Homo sapiens (Human), UniProt P35408)
- Sequence (P35408 whole entry): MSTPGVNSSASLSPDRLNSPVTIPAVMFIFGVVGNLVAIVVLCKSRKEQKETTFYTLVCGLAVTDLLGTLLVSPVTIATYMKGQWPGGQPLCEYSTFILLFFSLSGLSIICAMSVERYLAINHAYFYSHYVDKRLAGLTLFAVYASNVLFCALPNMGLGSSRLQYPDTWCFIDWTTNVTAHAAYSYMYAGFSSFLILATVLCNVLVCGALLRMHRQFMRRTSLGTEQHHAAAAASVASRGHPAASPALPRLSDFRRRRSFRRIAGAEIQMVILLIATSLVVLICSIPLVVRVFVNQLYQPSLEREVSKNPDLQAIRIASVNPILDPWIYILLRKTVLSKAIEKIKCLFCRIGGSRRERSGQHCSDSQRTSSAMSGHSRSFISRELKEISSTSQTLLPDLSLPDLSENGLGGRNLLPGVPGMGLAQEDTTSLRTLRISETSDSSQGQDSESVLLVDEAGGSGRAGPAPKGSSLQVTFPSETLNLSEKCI
- TEST METHOD NOTES: hEP4 cAMP assay (BT549 breast cancer cells, HTRF cAMP)
- Assay type: cell-based
- EXPERIMENTAL CONDITIONS: antagonistic activity, PGE2 6 nM
- Excerpt: Human tumor cell lines expressing endogenously either EP4 or EP2 are used and cAMP accumulation in cells upon PGE2 stimulation is monitored. […] As a detection method for cAMP the HTRF (homogeneous time resolved fluorescence) Cisbio kit (HTRF cAMP dynamic 2 kit 20'000 tests Cisbio Cat. #62AM4PEC) was used, which is based on a competitive immunoassay using a Cryptate-labeled anti-cAMP antibody and d2-labeled cAMP. […]

{"MOLECULAR STRING": "CCOc1cc(-c2cc(NCCc3cc4ccsc4cc3C#N)ncn2)ccc1C(=O)O", "EXPERIMENTAL SYSTEM": "EP4 (Homo sapiens (Human), UniProt P35408)", "IC50": "103 nM"}
{"MOLECULAR STRING": "CCOc1cc(-c2cc(NCCc3ccc4[nH]ccc4c3)ncn2)sc1-c1noc(=O)[nH]1", "EXPERIMENTAL SYSTEM": "EP4 (Homo sapiens (Human), UniProt P35408)", "IC50": "22 nM"}
{"MOLECULAR STRING": "CCOc1cc(-c2cc(NCCc3ccc4ccccc4c3C)ncn2)sc1C(=O)O", "EXPERIMENTAL SYSTEM": "EP4 (Homo sapiens (Human), UniProt P35408)", "IC50": "5 nM"}

====

Recorded log10 IC50 for the following molecules
- EXPERIMENTAL SYSTEM: PTGER2 (EP2) (Homo sapiens (Human), UniProt P43116)
- Sequence (P43116 whole entry): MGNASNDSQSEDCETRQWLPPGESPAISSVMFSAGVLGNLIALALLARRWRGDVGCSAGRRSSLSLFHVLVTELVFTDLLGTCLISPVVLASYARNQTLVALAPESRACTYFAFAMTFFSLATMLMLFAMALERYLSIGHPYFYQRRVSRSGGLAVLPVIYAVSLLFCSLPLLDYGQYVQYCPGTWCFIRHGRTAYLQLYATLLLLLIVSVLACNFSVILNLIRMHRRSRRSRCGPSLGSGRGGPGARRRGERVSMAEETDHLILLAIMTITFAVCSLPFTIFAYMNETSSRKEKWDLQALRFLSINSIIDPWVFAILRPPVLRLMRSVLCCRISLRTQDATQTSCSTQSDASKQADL
- TEST METHOD NOTES: hEP2 b-arrestin assay (PathHunter HEK 293 PTGER2 b-arrestin cells)
- EXPERIMENTAL CONDITIONS: antagonistic activity, beta-arrestin assay; read-out: hEP2 b-arr IC50
MEASUREMENT TYPE: log10 IC50 (log10 of the value in nM)

{"MOLECULAR STRING": "CCOc1cc(-c2cc(NCCc3ccc4sccc4c3F)ncn2)ccc1OCCC(=O)O", "EXPERIMENTAL SYSTEM": "PTGER2 (EP2) (Homo sapiens (Human), UniProt P43116)", "MEASUREMENT TYPE": "log10 IC50", "REPORTED": 1.92}
{"MOLECULAR STRING": "CCCc1cc(-c2cc(NCCc3c(OC)cc4c(c3F)OCCO4)ncn2)ccc1CC(=O)O", "EXPERIMENTAL SYSTEM": "PTGER2 (EP2) (Homo sapiens (Human), UniProt P43116)", "MEASUREMENT TYPE": "log10 IC50", "REPORTED": 1.46}
{"MOLECULAR STRING": "CCOc1cc(-c2cc(NCCc3ccc4cc[nH]c4c3)ncn2)sc1C(=O)O", "EXPERIMENTAL SYSTEM": "PTGER2 (EP2) (Homo sapiens (Human), UniProt P43116)", "MEASUREMENT TYPE": "log10 IC50", "REPORTED": 1.86}
{"MOLECULAR STRING": "C#Cc1c(CCNc2cc(-c3cc(OCC)c(C(=O)O)s3)ncn2)ccc2ccccc12", "EXPERIMENTAL SYSTEM": "PTGER2 (EP2) (Homo sapiens (Human), UniProt P43116)", "MEASUREMENT TYPE": "log10 IC50", "REPORTED": 2.03}
{"MOLECULAR STRING": "CCOc1cc(-c2cc(NCCc3ccc4c(c3)OCCO4)ncn2)sc1C(=O)O", "EXPERIMENTAL SYSTEM": "PTGER2 (EP2) (Homo sapiens (Human), UniProt P43116)", "MEASUREMENT TYPE": "log10 IC50", "REPORTED": 2.61}
{"MOLECULAR STRING": "CCOc1cc(-c2cc(NCCc3cc(F)c4sccc4c3)ncn2)ccc1-c1nnn[nH]1", "EXPERIMENTAL SYSTEM": "PTGER2 (EP2) (Homo sapiens (Human), UniProt P43116)", "MEASUREMENT TYPE": "log10 IC50", "REPORTED": 2.01}
{"MOLECULAR STRING": "COc1cc2c(cc1CCNc1cc(-c3ccc(CC(=O)O)c(CC(C)C)c3)ncn1)OCCO2", "EXPERIMENTAL SYSTEM": "PTGER2 (EP2) (Homo sapiens (Human), UniProt P43116)", "MEASUREMENT TYPE": "log10 IC50", "REPORTED": 1.99}
